Tested on: AsPC-1 (G12D) cells
Experiment: Cell viability assay (CELLTITER-GLO), AsPC-1 cells
Format: cell-based
Conditions: Homo sapiens, ASPC1, 72 h, Inhibition of cancerous cells, 3 days incubation, luminescence
Binary label based on IC50 with cut-off 3 µM: below gives Condition met, not below gives Condition not met.

# strict comparison: is reported IC50 < 3 µM? input = CNCc1ccccc1-c1csc([C@@H](C)Nc2nc(C)nc3cc(OC)c(OC)cc23)c1 [reference compound] Condition not met

Does the reported IC50 of CNCc1ccccc1-c1csc([C@@H](C)Nc2nc(C)nc3cc(OCCC(C)(C)C)c(OC)cc23)c1 stay below 3 µM? Condition met

Just wondering, is IC50 of CNCc1ccccc1-c1csc([C@@H](C)Nc2nc(C)nc3cc(OCCCCCCCC4CCC(c5ccccc5)CC4)c(OC)cc23)c1 (stereo partly shown) below 3 µM? Condition met

Field: below-cutoff. Rule: recorded IC50 strictly less than 3 µM. Subject: COc1cc2c(N[C@H](C)c3cccc(Br)c3)nc(C)nc2cc1OCCCCCCCN1CCC2(CCNCC2)CC1 Condition met

Regarding CNCc1ccccc1-c1csc([C@H](C)Nc2nc(C)nc3cc(OCCCCCCC(C)(C)C)c(OC)cc23)c1 , kindly confirm whether its IC50 is beneath 3 µM. Condition not met

Given the entry CNCc1ccccc1-c1csc([C@@H](C)Nc2nc(C)nc3cc(OCCCCCCCN4CCN(C(C)=O)CC4)c(OC)cc23)c1 , would its reported IC50 be below 3 µM? Condition met

Quick check: does COc1cc2nc(C)nc(N[C@H](C)c3cccc(Br)c3)c2cc1OC [reference compound] have IC50 under 3 µM? Condition not met

----------
Assignment: determine reported IC50 for the given molecules.
System: SW480 (G12V) cells
Test: Cell viability assay (CELLTITER-GLO), SW480 cells
Format: cell-based
Settings: Homo sapiens, 72 h, Inhibition of cancerous cells, 3 days incubation, luminescence

Recorded IC50 for CNCc1ccccc1-c1csc([C@@H](C)Nc2nc(C)nc3cc(OCCCCCCC(=O)N4CCCCC4)c(OC)cc23)c1 on SW480 (G12V) cells was 0.36 µM

The reported SW480 (G12V) cells IC50 of CNCc1ccccc1-c1csc([C@H](C)Nc2nc(C)nc3cc(OCCC(C)(C)C)c(OC)cc23)c1 is 0.46 µM

Measured IC50 (SW480 (G12V) cells), entry CNCc1ccccc1-c1csc([C@@H](C)Nc2nc(C)nc3cc(OCCC(C)(C)C)c(OC)cc23)c1 : 0.45 µM

For COc1cc2c(N[C@H](C)c3cccc(Br)c3)nc(C)nc2cc1OCCCCCCCC(=O)N[C@H]1CCC(=O)NC1=O on SW480 (G12V) cells, measured IC50 was 3.9 µM

Summary: COc1cc2c(N[C@H](C)c3cccc(Br)c3)nc(C)nc2cc1OCCCCCCCN1CCCC(F)(F)C1 , SW480 (G12V) cells, IC50 = 1.2 µM

// returns IC50 for CNCc1ccccc1-c1csc([C@@H](C)Nc2nc(C)nc3cc(OC)c(OC)cc23)c1 [reference compound] with SW480 (G12V) cells; value = 1 µM

COc1cc2nc(C)nc(N[C@H](C)c3cc(N)cc(C(F)(F)F)c3)c2cc1OC [reference compound] tested on SW480 (G12V) cells gave IC50: > 10 µM

Let me check: COc1cc2c(N[C@H](C)c3cccc(Br)c3)nc(C)nc2cc1OCCCCCCCN1CCCCC1=O , system SW480 (G12V) cells, measured IC50 is 0.78 µM

CNCc1ccccc1-c1csc([C@@H](C)Nc2nc(C)nc3cc(OCCNC(=O)CC45CC6CC(CC(C6)C4)C5)c(OC)cc23)c1 on SW480 (G12V) cells gives IC50 = 0.62 µM

Known value: SW480 (G12V) cells IC50 of the molecule CNCc1ccccc1-c1csc([C@@H](C)Nc2nc(C)nc3cc(OCCCCCOC(=O)CC45CC6CC(CC(C6)C4)C5)c(OC)cc23)c1 equals 0.57 µM
